- measurement target: human DPP-IV (Homo sapiens)
- Sequence (P27487 31-766): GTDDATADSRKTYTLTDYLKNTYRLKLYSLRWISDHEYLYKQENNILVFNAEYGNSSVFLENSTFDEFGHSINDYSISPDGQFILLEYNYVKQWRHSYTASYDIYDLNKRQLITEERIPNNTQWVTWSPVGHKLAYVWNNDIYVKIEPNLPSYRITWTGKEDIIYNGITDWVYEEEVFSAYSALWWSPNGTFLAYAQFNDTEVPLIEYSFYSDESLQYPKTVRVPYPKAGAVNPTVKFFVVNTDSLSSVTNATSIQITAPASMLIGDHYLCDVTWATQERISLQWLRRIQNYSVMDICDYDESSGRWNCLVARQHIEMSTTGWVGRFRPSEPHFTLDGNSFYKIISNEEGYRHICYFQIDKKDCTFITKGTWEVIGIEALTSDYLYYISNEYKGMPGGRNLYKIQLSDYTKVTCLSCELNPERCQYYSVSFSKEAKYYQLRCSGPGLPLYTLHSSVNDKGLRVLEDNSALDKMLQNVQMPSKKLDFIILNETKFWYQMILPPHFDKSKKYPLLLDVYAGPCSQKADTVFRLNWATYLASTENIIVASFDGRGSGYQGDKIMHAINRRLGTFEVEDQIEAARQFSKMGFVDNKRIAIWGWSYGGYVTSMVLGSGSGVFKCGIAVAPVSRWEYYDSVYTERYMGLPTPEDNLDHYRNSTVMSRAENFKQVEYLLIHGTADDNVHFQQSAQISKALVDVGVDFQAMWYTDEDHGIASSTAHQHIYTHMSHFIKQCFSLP
- method summary: DPP-IV activity assay (fluorogenic / colorimetric), IC50 determination
- applied conditions: natural human DPP-IV from human plasma pool or recombinant human DPP-IV; 37° C., pH 7.8
Where a name gives a salt, the structure may show the parent alone.
measured quantity: IC50 (nM)

1. COc1cc2c(cc1OCC(N)=O)CCN1C[C@H](c3cc(C)ccc3C)[C@@H](N)C[C@@H]21 (racemic) [Example 8, hydrochloride]
2. COc1cc2c(cc1OCC(=O)Nc1nn[nH]n1)CCN1C[C@H](c3cc(C)ccn3)[C@@H](N)C[C@@H]21 (racemic) [Example 13, hydrochloride]
### Prompt Hey, which is lower on measured IC50, 1 or 2 ? Answer format: the label of the selected item.
### Response 1
